# Tested on: NCI-H2009
# measurement-protocol: relative viability (nuclei count vs DMSO), 5 days (fraction); higher = more cells survive
# test-parameters: first compound 0.05 µM
Listed here are molecules together with their documented relative viability.
Would you mind answering with just the numeric figure?

Known results for molecules:
molecule | test-target | relative viability
Nc1ccn([C@@H]2O[C@H](CO)[C@@H](O)[C@@H]2O)c(=O)n1 [Cytarabine] + C[C@]1(O)C[C@@H](c2nc(-c3ccc4ccc(-c5ccccc5)nc4c3)c3c(N)nccn32)C1 [Linsitinib] (partner 1 µM) | NCI-H2009 | 1.19
COc1cc2nccc(Oc3ccc(NC(=O)Nc4cc(C)on4)c(Cl)c3)c2cc1OC [Tivozanib] + CC(=O)Nc1cccc(-n2c(=O)n(C3CC3)c(=O)c3c(Nc4ccc(I)cc4F)n(C)c(=O)c(C)c32)c1 [Trametinib] (partner 0.02 µM) | NCI-H2009 | 0.295

The recorded relative viability for COc1cc2nccc(Oc3ccc(NC(=O)Nc4cc(C)on4)c(Cl)c3)c2cc1OC [Tivozanib] + C[C@@H](Oc1cc(-c2cnn(C3CCNCC3)c2)cnc1N)c1c(Cl)ccc(F)c1Cl [Crizotinib] (partner 1 µM) is 1.1
